B1: library; numbered along this chain (parent)
chain: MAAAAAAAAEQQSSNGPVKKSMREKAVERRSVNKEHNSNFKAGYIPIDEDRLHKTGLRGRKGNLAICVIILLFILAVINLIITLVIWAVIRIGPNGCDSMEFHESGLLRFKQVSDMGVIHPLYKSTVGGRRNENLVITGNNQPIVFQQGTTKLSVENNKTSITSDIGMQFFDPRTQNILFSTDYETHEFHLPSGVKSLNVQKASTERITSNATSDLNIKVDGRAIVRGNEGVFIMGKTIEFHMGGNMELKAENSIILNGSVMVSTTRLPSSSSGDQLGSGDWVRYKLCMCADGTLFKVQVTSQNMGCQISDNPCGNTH

variants of: B1; experiment: SGCB cell-surface expression functional score (HA stain, bin4 vs bin1, normalised to synonymous) (log10 ratio); higher = more cell-surface SGCB (functional)
Lab note: anything with SGCB cell-surface expression functional score (log10) at or over -0.04 counts as true (1); the rest go in false (0).

Query: Say whether R174D shows SGCB cell-surface expression functional score (log10) of -0.04 or more.
Response: false (0)

Query: Say whether G244A shows SGCB cell-surface expression functional score (log10) of -0.04 or more.
Response: true (1)

Query: Say whether I178A shows SGCB cell-surface expression functional score (log10) of -0.04 or more.
Response: false (0)

Query: Say whether H190D shows SGCB cell-surface expression functional score (log10) of -0.04 or more.
Response: false (0)

Query: Say whether E35L shows SGCB cell-surface expression functional score (log10) of -0.04 or more.
Response: false (0)

Query: Say whether G117A shows SGCB cell-surface expression functional score (log10) of -0.04 or more.
Response: false (0)

Query: Say whether D172K shows SGCB cell-surface expression functional score (log10) of -0.04 or more.
Response: false (0)

Query: Say whether G274C shows SGCB cell-surface expression functional score (log10) of -0.04 or more.
Response: false (0)

Query: Say whether F233G shows SGCB cell-surface expression functional score (log10) of -0.04 or more.
Response: false (0)

Query: Say whether M1V shows SGCB cell-surface expression functional score (log10) of -0.04 or more.
Response: true (1)

Query: Say whether C314T shows SGCB cell-surface expression functional score (log10) of -0.04 or more.
Response: false (0)

Query: Say whether N140A shows SGCB cell-surface expression functional score (log10) of -0.04 or more.
Response: false (0)

Query: Say whether T209Y shows SGCB cell-surface expression functional score (log10) of -0.04 or more.
Response: false (0)

Query: Say whether K25C shows SGCB cell-surface expression functional score (log10) of -0.04 or more.
Response: true (1)

Query: Say whether G117H shows SGCB cell-surface expression functional score (log10) of -0.04 or more.
Response: false (0)

Query: Say whether N39F shows SGCB cell-surface expression functional score (log10) of -0.04 or more.
Response: false (0)

Query: Say whether E35T shows SGCB cell-surface expression functional score (log10) of -0.04 or more.
Response: true (1)

Query: Say whether I92Y shows SGCB cell-surface expression functional score (log10) of -0.04 or more.
Response: false (0)

Query: Say whether I309F shows SGCB cell-surface expression functional score (log10) of -0.04 or more.
Response: false (0)

Query: Say whether A76V shows SGCB cell-surface expression functional score (log10) of -0.04 or more.
Response: true (1)

Query: Say whether S125M shows SGCB cell-surface expression functional score (log10) of -0.04 or more.
Response: true (1)

Query: Say whether L64D shows SGCB cell-surface expression functional score (log10) of -0.04 or more.
Response: false (0)

Query: Say whether P173I shows SGCB cell-surface expression functional score (log10) of -0.04 or more.
Response: false (0)

Query: Say whether P94R shows SGCB cell-surface expression functional score (log10) of -0.04 or more.
Response: false (0)

Query: Say whether V118G shows SGCB cell-surface expression functional score (log10) of -0.04 or more.
Response: false (0)

Query: Say whether N312H shows SGCB cell-surface expression functional score (log10) of -0.04 or more.
Response: false (0)

Query: Say whether R109C shows SGCB cell-surface expression functional score (log10) of -0.04 or more.
Response: false (0)

Query: Say whether Q148R shows SGCB cell-surface expression functional score (log10) of -0.04 or more.
Response: true (1)

Query: Say whether Q147T shows SGCB cell-surface expression functional score (log10) of -0.04 or more.
Response: false (0)

Query: Say whether T301K shows SGCB cell-surface expression functional score (log10) of -0.04 or more.
Response: true (1)

Query: Say whether L268R shows SGCB cell-surface expression functional score (log10) of -0.04 or more.
Response: true (1)

Query: Say whether I86N shows SGCB cell-surface expression functional score (log10) of -0.04 or more.
Response: false (0)

Query: Say whether Y123E shows SGCB cell-surface expression functional score (log10) of -0.04 or more.
Response: true (1)

Query: Say whether T186Q shows SGCB cell-surface expression functional score (log10) of -0.04 or more.
Response: true (1)

Query: Say whether L179A shows SGCB cell-surface expression functional score (log10) of -0.04 or more.
Response: true (1)

Query: Say whether G244W shows SGCB cell-surface expression functional score (log10) of -0.04 or more.
Response: true (1)

Query: Say whether S161Y shows SGCB cell-surface expression functional score (log10) of -0.04 or more.
Response: false (0)

Query: Say whether S114H shows SGCB cell-surface expression functional score (log10) of -0.04 or more.
Response: false (0)

Source: the supplement of paper PMC10266784
